biological target: human MMP-14 (human, UniProt P50281 112-541, limits assumed); assay: cell-based or functional assay
Quantity name: IC50 of MMP-14 inhibition (MMP-14 at 2 pM), Fab (nM)
One number for each entry, in nM.

Consider the reported IC50 of MMP-14 inhibition (MMP-14 at 2 pM), Fab for these binders:
* M0031-C02 Fab (Fab, V domains shown) VH: EVQLLESGGGLVQPGGSLRLSCAASGFTFSPYPMGWVRQAPGKGLEWVSSIVSSGGLTLYADSVKGRFTISRDNSKNTLYLQMNSLRAEDTAVYYCARGGRLYDILTGQGAPFDYWGQGTLVTVSS VL: DIQMTQSPLSLPVTPGEPASISCRSSQSLLHSNGYYYLDWYLQKPGQSPQLLIYLGSYRASGVPDRFSGSGSGTDFTLKISSVEAEDVGVYYCMQALQTPLTFGGGTRVDIK | 56
* M0040-A11 Fab (Fab, V domains shown) VH: EVQLLESGGGLVQPGGSLRLSCAASGFTFSHYVMFWVRQAPGKGLEWVSRIVPSGGATMYADSVKGRFTISRDNSKNTLYLQMNSLRAEDTAVYYCARDRPLYDSSGYVDYWGQGTLVTVSS VL: QSALTQPPSASGSPGQSVTISCTGTSSDVGAYNYVSWYQQHPDKAPKLIIYNVNERPSGVPDRFSGSKSGNTASLTVSGLQAEDEADYYCTSYAGSNKIGVSGTGTKVTVL | 23.2

Now consider a different binder.
Lab note: measured IC50 of MMP-14 inhibition (MMP-14 at 2 pM), Fab of M0037-D01 Fab (Fab, V domains shown) VH: EVQLLESGGGLVQPGGSLRLSCAASGFTFSMYMMIWVRQAPGKGLEWVSSIYPSGGNTMYADSVKGRFTISRDNSKNTLYLQMNSLRAEDTAVYYCATGVLRYFDWDAGSGMDVWGQGTTVTVSS VL: DIQMTQSPSSLSASVGDRVTITCRASQGIRNDLGWYQQKPGKAPKRLIYVASSLQSGVPSRFSGSGSGTEFTLTISSLQPEDFATYYCLQHNSYPWTFGQGTKVEIK was 4.3
